Would you mind telling me the reported pIC50 of each entry?
Tested on: NTCP (Homo sapiens, UniProt Q14973)
Construct: expressed in transfected cells
Sequence (Q14973 whole entry): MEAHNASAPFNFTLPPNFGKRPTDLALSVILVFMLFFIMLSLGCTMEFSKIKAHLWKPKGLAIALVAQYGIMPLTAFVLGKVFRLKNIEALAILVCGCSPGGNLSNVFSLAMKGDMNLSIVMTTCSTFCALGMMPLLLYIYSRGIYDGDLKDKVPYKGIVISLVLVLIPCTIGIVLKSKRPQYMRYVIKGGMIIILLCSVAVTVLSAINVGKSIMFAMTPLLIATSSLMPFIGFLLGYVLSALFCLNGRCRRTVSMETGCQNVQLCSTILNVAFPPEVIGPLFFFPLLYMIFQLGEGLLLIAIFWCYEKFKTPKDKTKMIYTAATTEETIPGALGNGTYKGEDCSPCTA
Assay info: [3H]preS1 (myr-preS1_2-48 lipopeptide) binding inhibition in NTCP-HEK293 cells
Measurement parameters: 95% confidence interval; inhibition of 5 nM [3H]preS1 binding; NTCP-HEK293 cells; 10 min, 37 °C; read-out: IC50 ([3H]preS1 binding)
pIC50: −log10 of the molar value.

C=C(C)[C@@H]1CC[C@]2(CO)CC[C@]3(C)[C@H](CC[C@@H]4[C@@]5(C)CC[C@H](OC(C)=O)C(C)(C)[C@@H]5CC[C@]43C)[C@@H]12
4.06 to 4.69

Input `C=C(C)[C@@H]1CC[C@]2(COC(=O)CBr)CC[C@]3(C)[C@H](CC[C@@H]4[C@@]5(C)CC[C@H](O)C(C)(C)[C@@H]5CC[C@]43C)[C@@H]12` , output reported pIC50. 4.95 to 5.28

----------
Tested on: NTCP (Homo sapiens, UniProt Q14973)
Construct: expressed in transfected cells
Assay info: [3H]preS1 (myr-preS1_2-48 lipopeptide) binding inhibition in NTCP-HEK293 cells
Measurement parameters: IC50 ([3H]preS1 binding), 95% confidence interval; inhibition of 5 nM [3H]preS1 binding; NTCP-HEK293 cells; 10 min, 37 °C
Reported property: IC50

Please state IC50 for every molecule in the list that follows.
1. C=C(C)[C@@H]1CC[C@]2(C)CC[C@]3(C)[C@H](CC[C@@H]4[C@@]5(C)CC[C@H](O)C(C)(C)[C@@H]5CC[C@]43C)[C@@H]12
2. C=C(C)[C@@H]1CC[C@]2(C(=O)OC)CC[C@]3(C)[C@H](CC[C@@H]4[C@@]5(C)CC[C@H](O)C(C)(C)[C@@H]5CC[C@]43C)[C@@H]12 [Compound 5, Methyl betulinate]
3. CC1(C)CC[C@]23CC[C@]4(C)[C@H](CC[C@@H]5[C@@]6(C)CC[C@H](O)C(C)(C)[C@@H]6CC[C@]54C)[C@H]2[C@H]1OC3

26.9 to 97.9 µM
12.7 to 83.5 µM
9.67 to 20.8 µM

State the measured IC50 (NTCP (Homo sapiens, UniProt Q14973)) of `C=C(C)[C@@H]1CC[C@]2(C)CC[C@]3(C)[C@H](CC[C@@H]4[C@@]5(C)CCC(=O)C(C)(C)[C@@H]5CC[C@]43C)[C@@H]12` 13.1 to 35.5 µM

----------
Tested on: NTCP (Homo sapiens, UniProt Q14973)
Construct: expressed in transfected cells
Assay info: [3H]TC transport (bile acid uptake) inhibition in NTCP-HEK293 cells
Type: cell-based
Measurement parameters: mean IC50; […] µM [3H]TC; NTCP-HEK293 cells; standard pH 7.4; read-out: IC50 [3H]TC transport inhibition
Procedure: The major goal of the present study was to analyze in parallel the effect of inhibitors on both, bile acid transport via NTCP and myr-preS1_2-48 lipopeptide binding to NTCP in a cell culture system. […] Half maximal inhibitory concentrations (IC50) were calculated by nonlinear regression analysis using the equation log(inhibitor) versus response (GraphPad Prism). […] Transport rates and [^3H]preS1 binding were determined in counts per minute (cpm). […]
Reported property: IC50

Completed entries (count: 2):
C=C(C)C1CCC2(COC(C)=O)CCC3(C)C(CCC4C5(C)CCC(OC(C)=O)C(C)(C)C5CCC43C)C12 (stereo not drawn) [Compound 24, 3,28-Di-O-acetylbetulin]
> 1000 µM
CC(=O)OC[C@]12CCC(C(C)C)=C1[C@H]1CC[C@@H]3[C@@]4(C)CC[C@H](OC(C)=O)C(C)(C)[C@@H]4CC[C@@]3(C)[C@]1(C)CC2 [Compound 28]
> 1000 µM

Let's switch to this molecule now.
Input C=C(CO)C1CCC2(COC(C)=O)CCC3(C)C(CCC4C5(C)CCC(OC(C)=O)C(C)(C)C5CCC43C)C12 (stereo not drawn) [Compound 25, 3,28-Di-O-acetyl-29-hydroxybetulin] , output reported IC50. > 1000 µM

----------
Would you mind telling me the reported Selectivity index of each entry?
Tested on: NTCP (Homo sapiens, UniProt Q14973)
Construct: expressed in transfected cells
Assay info: [3H]preS1 (myr-preS1_2-48 lipopeptide) binding inhibition in NTCP-HEK293 cells
Measurement parameters: ratio of mean IC50 [3H]TC transport inhibition / IC50 [3H]preS1 binding inhibition
Numbers only.

Completed entries (count: 3):
C=C(C)[C@@H]1CC[C@]2(C(=O)O)CC[C@]3(C)[C@H](CC[C@@H]4[C@@]5(C)CC[C@H](OC(C)=O)C(C)(C)[C@@H]5CC[C@]43C)[C@@H]12
5
C=C(C)[C@@H]1CC[C@]2(COC(=O)CCc3ccccc3)CC[C@]3(C)[C@H](CC[C@@H]4[C@@]5(C)CC[C@H](OC(=O)CCc6ccccc6)C(C)(C)[C@@H]5CC[C@]43C)[C@@H]12 [Compound 16, 3,28-Di-O-(dihydrocinnamoyl)betulin]
6
C=C(C)[C@@H]1CC[C@]2(C(=O)N[C@@H](CC(=O)OC)C(=O)OC)CC[C@]3(C)[C@H](CC[C@@H]4[C@@]5(C)CCC(=O)C(C)(C)[C@@H]5CC[C@]43C)[C@@H]12 [Compound 19, Betulonoyl dimethyl-L-aspartate]
28

Please state Selectivity index for every molecule in the list that follows.
1. C=C(C)[C@@H]1CC[C@]2(COC(=O)/C=C/c3ccccc3)CC[C@]3(C)[C@H](CC[C@@H]4[C@@]5(C)CC[C@H](O)C(C)(C)[C@@H]5CC[C@]43C)[C@@H]12
2. C=C(C)[C@@H]1CC[C@]2(COC(=O)CC(C)(C)CC(=O)O)CC[C@]3(C)[C@H](CC[C@@H]4[C@@]5(C)CC[C@H](OC(=O)CC(C)(C)CC(=O)O)C(C)(C)[C@@H]5CC[C@]43C)[C@@H]12
3. C=C(C)C1CCC2(C=NO)CCC3(C)C(CCC4C5(C)CCC(O)C(C)(C)C5CCC43C)C12 (stereo not shown)
4. C=C(C)C1CCC2(CO)CCC3(C)C(CCC4C5(C)CCC(OC(=O)C=Cc6ccc(O)c(O)c6)C(C)(C)C5CCC43C)C12 (stereo not shown)
5. C=C(C)[C@@H]1CC[C@]2(COC(=O)CCC(=O)O)CC[C@]3(C)[C@H](CC[C@@H]4[C@@]5(C)CC[C@H](O)C(C)(C)[C@@H]5CC[C@]43C)[C@@H]12
6. C=C(C)[C@@H]1CC[C@]2(CO)CC[C@]3(C)[C@H](CC[C@@H]4[C@@]5(C)CC[C@H](OC(C)=O)C(C)(C)[C@@H]5CC[C@]43C)[C@@H]12
7. C=C(C)[C@@H]1CC[C@]2(COC(=O)CBr)CC[C@]3(C)[C@H](CC[C@@H]4[C@@]5(C)CC[C@H](O)C(C)(C)[C@@H]5CC[C@]43C)[C@@H]12

[7, 1, 48, 22, 3, 2, 11]

Please state Selectivity index for every molecule in the list that follows.
1. CC(=O)OC[C@]12CC[C@@H](C3(C)CO3)[C@@H]1[C@H]1CC[C@@H]3[C@@]4(C)CC[C@H](OC(C)=O)C(C)(C)[C@@H]4CC[C@@]3(C)[C@]1(C)CC2 (stereo partly shown)
2. C=C(C)[C@@H]1CC[C@]2(COC(=O)CC(C)(C)CC(=O)O)CC[C@]3(C)[C@H](CC[C@@H]4[C@@]5(C)CC[C@H](O)C(C)(C)[C@@H]5CC[C@]43C)[C@@H]12
3. C=C(C)[C@@H]1CC[C@]2(COC3CCCCO3)CC[C@]3(C)[C@H](CC[C@@H]4[C@@]5(C)CC[C@H](O)C(C)(C)[C@@H]5CC[C@]43C)[C@@H]12 (stereo partly shown) [Compound 13, 28-(Tetrahydro-2H-pyran-2-yl)betulin]
4. C=C(C)[C@@H]1CC[C@]2(COC(=O)c3cccnc3)CC[C@]3(C)[C@H](CC[C@@H]4[C@@]5(C)CC[C@H](O)C(C)(C)[C@@H]5CC[C@]43C)[C@@H]12
5. C=C(C)[C@@H]1CC[C@]2(COC(=O)CCC(=O)O)CC[C@]3(C)[C@H](CC[C@@H]4[C@@]5(C)CC[C@H](OC(=O)CCC(=O)O)C(C)(C)[C@@H]5CC[C@]43C)[C@@H]12
6. C=C(C)[C@@H]1CC[C@]2(C(=O)O)CC[C@]3(C)[C@H](CC[C@@H]4[C@@]5(C)CC[C@H](OC(=O)CC(C)(C)CC(=O)O)C(C)(C)[C@@H]5CC[C@]43C)[C@@H]12

1: 12; 2: 1; 3: 19; 4: 5; 5: 1; 6: 1

Input C=C(C)[C@@H]1CC[C@]2(COC3CCCCO3)CC[C@]3(C)[C@H](CC[C@@H]4[C@@]5(C)CC[C@H](OC(C)=O)C(C)(C)[C@@H]5CC[C@]43C)[C@@H]12 (stereo partly shown) , output reported Selectivity index. 10
